molecular target: recombinant human baculovirus-expressed GST-tagged FASN (Homo sapiens); construct: GST; test: FASN enzyme activity assay, fluorescence-based detection of CoA with CPM; assay type: biochemical; settings: 5 nM FASN, 150 μM NADPH, 10 μM acetyl-CoA, 25 μM malonyl-CoA, 90 minutes incubation; read-out: IC50 data for Additional Compounds of Formulae I-V(a): Activity
Sequence (P49327 whole entry): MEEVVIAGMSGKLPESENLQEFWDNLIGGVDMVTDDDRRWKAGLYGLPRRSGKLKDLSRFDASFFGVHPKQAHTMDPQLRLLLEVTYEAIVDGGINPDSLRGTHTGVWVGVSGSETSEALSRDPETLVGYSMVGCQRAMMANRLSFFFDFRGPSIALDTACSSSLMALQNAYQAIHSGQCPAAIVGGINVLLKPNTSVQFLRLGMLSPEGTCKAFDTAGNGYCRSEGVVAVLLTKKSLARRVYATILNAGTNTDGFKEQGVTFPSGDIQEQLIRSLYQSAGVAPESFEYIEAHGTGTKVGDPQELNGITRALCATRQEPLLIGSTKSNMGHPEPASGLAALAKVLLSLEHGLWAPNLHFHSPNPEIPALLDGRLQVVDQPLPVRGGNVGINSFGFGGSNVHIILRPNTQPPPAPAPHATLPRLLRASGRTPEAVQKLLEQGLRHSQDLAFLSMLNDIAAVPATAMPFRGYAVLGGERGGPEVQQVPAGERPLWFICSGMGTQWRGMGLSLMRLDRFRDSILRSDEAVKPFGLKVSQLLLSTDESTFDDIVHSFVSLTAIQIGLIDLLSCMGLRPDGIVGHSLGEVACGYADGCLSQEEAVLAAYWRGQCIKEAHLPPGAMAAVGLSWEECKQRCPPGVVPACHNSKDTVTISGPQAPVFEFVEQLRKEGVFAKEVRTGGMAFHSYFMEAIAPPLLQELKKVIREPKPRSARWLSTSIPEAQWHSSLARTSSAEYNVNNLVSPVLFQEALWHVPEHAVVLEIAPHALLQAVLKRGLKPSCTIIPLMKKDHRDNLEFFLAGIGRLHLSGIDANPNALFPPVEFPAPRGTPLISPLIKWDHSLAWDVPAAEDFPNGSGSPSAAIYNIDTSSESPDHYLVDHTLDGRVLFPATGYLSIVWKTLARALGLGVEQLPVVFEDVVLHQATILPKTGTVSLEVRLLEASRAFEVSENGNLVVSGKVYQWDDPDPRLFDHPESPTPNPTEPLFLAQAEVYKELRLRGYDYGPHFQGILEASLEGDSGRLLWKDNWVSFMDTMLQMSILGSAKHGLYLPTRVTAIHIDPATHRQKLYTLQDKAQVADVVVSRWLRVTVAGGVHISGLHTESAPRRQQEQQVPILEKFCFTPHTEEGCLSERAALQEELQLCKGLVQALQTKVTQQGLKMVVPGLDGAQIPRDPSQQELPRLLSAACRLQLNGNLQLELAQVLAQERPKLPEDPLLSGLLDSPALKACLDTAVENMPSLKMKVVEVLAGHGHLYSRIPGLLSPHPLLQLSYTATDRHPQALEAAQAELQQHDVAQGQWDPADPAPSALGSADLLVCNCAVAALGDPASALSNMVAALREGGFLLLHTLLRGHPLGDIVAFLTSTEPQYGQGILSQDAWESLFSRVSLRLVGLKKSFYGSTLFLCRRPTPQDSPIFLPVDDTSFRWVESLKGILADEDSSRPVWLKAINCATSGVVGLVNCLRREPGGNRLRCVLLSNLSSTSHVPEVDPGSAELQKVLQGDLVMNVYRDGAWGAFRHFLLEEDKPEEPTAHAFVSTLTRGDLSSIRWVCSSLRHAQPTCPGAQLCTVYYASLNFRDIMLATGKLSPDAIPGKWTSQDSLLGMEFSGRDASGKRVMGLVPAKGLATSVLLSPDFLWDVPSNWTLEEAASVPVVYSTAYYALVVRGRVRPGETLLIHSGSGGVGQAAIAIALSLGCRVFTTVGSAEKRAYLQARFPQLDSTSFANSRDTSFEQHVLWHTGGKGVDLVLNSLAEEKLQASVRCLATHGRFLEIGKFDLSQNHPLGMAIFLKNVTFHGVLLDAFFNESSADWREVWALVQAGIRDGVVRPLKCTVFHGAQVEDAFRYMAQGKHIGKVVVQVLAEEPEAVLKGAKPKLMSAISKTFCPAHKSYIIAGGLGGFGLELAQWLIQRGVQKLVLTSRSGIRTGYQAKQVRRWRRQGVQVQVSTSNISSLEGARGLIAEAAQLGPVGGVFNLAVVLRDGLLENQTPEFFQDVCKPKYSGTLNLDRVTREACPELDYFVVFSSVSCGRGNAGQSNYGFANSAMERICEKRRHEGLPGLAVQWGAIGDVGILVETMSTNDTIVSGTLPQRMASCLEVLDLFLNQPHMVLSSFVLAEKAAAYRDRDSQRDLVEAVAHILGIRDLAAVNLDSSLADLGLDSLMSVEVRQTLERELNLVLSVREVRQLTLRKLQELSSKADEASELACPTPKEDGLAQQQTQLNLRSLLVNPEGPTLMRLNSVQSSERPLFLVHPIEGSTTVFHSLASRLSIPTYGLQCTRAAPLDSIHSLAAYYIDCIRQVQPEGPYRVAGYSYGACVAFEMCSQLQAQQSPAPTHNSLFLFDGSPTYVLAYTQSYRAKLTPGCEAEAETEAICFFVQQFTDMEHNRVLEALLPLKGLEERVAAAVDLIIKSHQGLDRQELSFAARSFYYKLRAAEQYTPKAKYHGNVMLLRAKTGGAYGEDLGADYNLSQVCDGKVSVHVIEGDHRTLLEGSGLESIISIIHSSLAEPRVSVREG
pIC50: −log10 of the molar value.
ATTRIBUTE_MEASURED: pIC50

{"COMPOUND": "CONC(=O)N1CCC(Oc2ccc(-c3ccc4ccnn4c3C)cc2)CC1 [Example 539]", "DATA_VALUE": "7.00 to 9.00"}
{"COMPOUND": "Cc1nccc2cc(-c3ccc(OC4CCN(C(N)=O)CC4)cc3)ccc12 [Example 581]", "DATA_VALUE": "7.00 to 9.00"}
{"COMPOUND": "Cc1c(-c2ccc(OC3CCN(C(=O)[C@@H]4CCCN4)CC3)cc2)ccc2cccnc12 [Example 621]", "DATA_VALUE": "5.00 to 6.00"}
{"COMPOUND": "NC(=O)N1CCC(Oc2ccc(-c3ccc4nccn4c3Cl)cc2)CC1 [Example 577]", "DATA_VALUE": "6.00 to 7.00"}

Now take the following compound into account.
Provide one value: measured pIC50 of Cc1c(-c2ccc(OC3CCN(C(=O)CO)CC3)cc2)ccc2cccnc12 [Example 626]
7.00 to 9.00

These measurements were taken from patent US9902696B2.
